Target: EGFR del19/T790M/C797S (Homo sapiens, UniProt P00533, C797S/DEL746-750/T790M)
Sequence (P00533 with tags, fused parts or gaps DEL746-750/T790M/C797S): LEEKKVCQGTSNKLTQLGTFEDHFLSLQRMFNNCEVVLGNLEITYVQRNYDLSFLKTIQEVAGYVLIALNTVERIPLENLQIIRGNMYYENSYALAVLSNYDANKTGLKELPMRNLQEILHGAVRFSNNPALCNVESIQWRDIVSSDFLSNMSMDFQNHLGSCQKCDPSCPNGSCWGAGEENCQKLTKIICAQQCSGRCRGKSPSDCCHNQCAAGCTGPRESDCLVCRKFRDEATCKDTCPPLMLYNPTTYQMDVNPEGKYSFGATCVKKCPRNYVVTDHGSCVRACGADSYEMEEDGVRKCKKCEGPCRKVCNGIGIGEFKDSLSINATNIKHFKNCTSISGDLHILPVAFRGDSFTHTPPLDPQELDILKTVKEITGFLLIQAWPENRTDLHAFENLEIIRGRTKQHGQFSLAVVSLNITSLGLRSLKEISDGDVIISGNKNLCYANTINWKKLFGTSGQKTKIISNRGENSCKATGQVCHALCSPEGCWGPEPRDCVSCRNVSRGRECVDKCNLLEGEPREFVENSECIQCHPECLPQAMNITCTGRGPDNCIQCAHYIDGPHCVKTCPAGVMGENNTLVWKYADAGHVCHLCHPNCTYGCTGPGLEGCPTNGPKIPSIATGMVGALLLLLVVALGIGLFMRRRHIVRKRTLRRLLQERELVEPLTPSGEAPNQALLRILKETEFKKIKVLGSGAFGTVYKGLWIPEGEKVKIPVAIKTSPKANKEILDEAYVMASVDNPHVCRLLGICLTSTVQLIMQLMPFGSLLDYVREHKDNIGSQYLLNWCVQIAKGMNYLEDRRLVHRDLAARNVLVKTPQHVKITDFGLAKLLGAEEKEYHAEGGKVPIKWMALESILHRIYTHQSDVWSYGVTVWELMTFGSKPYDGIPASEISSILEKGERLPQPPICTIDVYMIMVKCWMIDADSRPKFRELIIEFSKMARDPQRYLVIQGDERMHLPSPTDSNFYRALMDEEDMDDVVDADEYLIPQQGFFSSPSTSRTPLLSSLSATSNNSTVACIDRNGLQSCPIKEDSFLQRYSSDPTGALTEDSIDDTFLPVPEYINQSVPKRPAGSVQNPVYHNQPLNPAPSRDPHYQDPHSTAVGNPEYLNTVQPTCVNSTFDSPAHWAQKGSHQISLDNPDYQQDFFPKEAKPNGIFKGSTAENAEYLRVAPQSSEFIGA
Assay: Biochemical EGFR kinase assay (Lance Ultra TR-FRET), triple mutant del19/T790M/C797S
Conditions: Km ATP; read-out: IC50 del19/T790M/C797S (nM) Km ATP
IC50 vs 0.3 nM: less than gives Fulfilled; not less than gives Not fulfilled.

Past entries and their recorded results:
Challenge: Identify whether the compound CN1CCN(c2ccc(-c3cnc(Nc4ccnc(-c5cnn(S(=O)(=O)C6CC6)c5)n4)cc3N[C@H]3CC[C@@](C)(O)CC3)nc2)CC1 [Example 83] records IC50 below 0.3 nM.
Response given: Not fulfilled

Challenge: Please determine if CC(C)(O)c1cnc(-c2cnc(Nc3ccnc(-c4cnn(S(=O)(=O)C5CC5)c4)n3)cc2N[C@H]2CC[C@@H](CO)CC2)cn1 [Example 119] is below 0.3 nM in terms of IC50.
Response given: Fulfilled

Challenge: IC50 strictly < 0.3 nM for this compound? O=S(=O)(C1CC1)n1cc(-c2nccc(Nc3cc(N[C@H]4CC[C@@H](F)CC4)c(-c4ccc(CN5CCOCC5)cn4)cn3)n2)cn1 [Example 126]
Response given: Not fulfilled

More entries:
Challenge: For this compound, is IC50 lower than 0.3 nM? O=S(=O)(C1CC1)n1cc(-c2nccc(Nc3cc(N[C@H]4CC[C@@H](F)CC4)c(-c4ccc(N5CCOCC5)cn4)cn3)n2)cn1 [Example 123]
Response given: Not fulfilled

Challenge: Just wondering, is IC50 of CC(C)N1CCN(Cc2ccc(-c3cnc(Nc4ccnc(-c5cnn(S(=O)(=O)C6CC6)c5)n4)cc3N[C@H]3CC[C@@](C)(O)CC3)nc2)CC1 [Example 34] below 0.3 nM?
Response given: Not fulfilled

Challenge: Record C[C@]1(O)CC[C@@H](Nc2cc(Nc3ccnc(-c4cnn(S(=O)(=O)C5CC5)c4)n3)ncc2-c2ccc(CN3CCOCC3)cn2)CC1 [Example 32] : is its IC50 strictly below 0.3 nM?
Response given: Fulfilled

Challenge: Check if IC50 falls below 0.3 nM for C[C@]1(O)CC[C@@H](Nc2cc(Nc3ccnc(-c4cnn(S(=O)(=O)C5CC5)c4)n3)ncc2-c2cc(OC(F)F)ccn2)CC1 [Example 331] .
Response given: Not fulfilled

Challenge: Would you kindly verify if IC50 of CN1CCN(Cc2ccc(-c3cnc(Nc4ccnc(-c5cnn(S(=O)(=O)C6CC6)c5)n4)cc3N3CCC(C)(CO)CC3)nc2)CC1 [Example 1] is strictly less than 0.3 nM?
Response given: Not fulfilled

Challenge: Is IC50 strictly under 0.3 nM for the entry CN(C)Cc1ccnc(-c2cnc(Nc3ccnc(-c4cnn(S(=O)(=O)C5CC5)c4)n3)cc2N[C@H]2CC[C@@](C)(O)CC2)c1 [Example 64] ?
Response given: Fulfilled

----------
Known IC50 of a selection of compounds
Biological target: EGFR wildtype (Homo sapiens, UniProt P00533)
Sequence (P00533 25-1210): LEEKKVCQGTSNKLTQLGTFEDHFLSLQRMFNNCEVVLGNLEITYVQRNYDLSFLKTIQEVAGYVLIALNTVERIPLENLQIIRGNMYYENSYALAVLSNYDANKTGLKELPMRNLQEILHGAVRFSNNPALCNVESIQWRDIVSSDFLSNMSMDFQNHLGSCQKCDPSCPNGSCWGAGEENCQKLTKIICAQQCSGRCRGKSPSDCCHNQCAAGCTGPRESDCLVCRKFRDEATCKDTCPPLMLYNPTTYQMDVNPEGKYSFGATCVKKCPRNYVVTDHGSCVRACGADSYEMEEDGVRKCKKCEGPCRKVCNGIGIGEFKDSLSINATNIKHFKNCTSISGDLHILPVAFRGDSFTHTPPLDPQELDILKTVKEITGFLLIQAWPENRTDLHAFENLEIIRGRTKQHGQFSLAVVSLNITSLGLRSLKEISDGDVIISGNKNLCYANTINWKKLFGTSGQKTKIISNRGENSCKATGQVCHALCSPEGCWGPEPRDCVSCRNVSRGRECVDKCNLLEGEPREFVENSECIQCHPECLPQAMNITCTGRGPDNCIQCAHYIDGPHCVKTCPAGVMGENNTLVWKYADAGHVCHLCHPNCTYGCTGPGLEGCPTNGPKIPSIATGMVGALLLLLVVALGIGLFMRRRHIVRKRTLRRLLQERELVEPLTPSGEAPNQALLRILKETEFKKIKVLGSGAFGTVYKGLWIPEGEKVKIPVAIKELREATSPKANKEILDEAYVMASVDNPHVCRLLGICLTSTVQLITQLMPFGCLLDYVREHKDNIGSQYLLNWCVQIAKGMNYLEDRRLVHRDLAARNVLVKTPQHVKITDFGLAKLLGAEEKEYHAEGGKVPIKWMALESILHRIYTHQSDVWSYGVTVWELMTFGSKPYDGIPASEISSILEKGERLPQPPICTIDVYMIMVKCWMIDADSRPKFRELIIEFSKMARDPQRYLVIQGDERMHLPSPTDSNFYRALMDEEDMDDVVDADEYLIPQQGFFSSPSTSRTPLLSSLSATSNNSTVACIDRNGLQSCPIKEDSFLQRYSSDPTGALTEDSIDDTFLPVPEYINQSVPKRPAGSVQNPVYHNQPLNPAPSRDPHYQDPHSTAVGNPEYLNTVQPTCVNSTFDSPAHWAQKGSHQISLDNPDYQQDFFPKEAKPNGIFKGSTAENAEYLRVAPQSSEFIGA
Assay: Biochemical EGFR kinase assay (Lance Ultra TR-FRET), wildtype
Conditions: Km ATP; read-out: IC50 WT (nM) Km ATP

Challenge: For the compound C[C@]1(O)CC[C@@H](Nc2cc(Nc3ccnc(-c4cnn(S(=O)(=O)C5CC5)c4)n3)ncc2-c2ccc(CN3CCOCC3)cn2)CC1 [Example 32] , report IC50.
Response given: 0.3 nM

Challenge: Could you please provide reported IC50 for CN1CCC(Oc2ccc(-c3cnc(Nc4ccnc(-c5cnn(S(=O)(=O)C6CC6)c5)n4)cc3N[C@H]3CC[C@@H](F)CC3)nc2)CC1 [Example 132] ? Thanks!
Response given: 0.8 nM

Challenge: Input C[C@]1(O)CC[C@@H](Nc2cc(Nc3ccnc(-c4cnn(S(=O)(=O)C5CC5)c4)n3)ncc2-c2ccc(OC(F)F)cn2)CC1 [Example 332] , output reported IC50.
Response given: 21 nM

Challenge: Given the compound CN(C)Cc1cnc(-c2cnc(Nc3ccnc(-c4cnn(S(=O)(=O)C5CC5)c4)n3)cc2N[C@H]2CC[C@@](C)(O)CC2)cn1 [Example 65] , write its reported IC50.
Response given: 2.4 nM

Challenge: Give me measured IC50, please, for this compound: O=S(=O)(C1CC1)n1cc(-c2nccc(Nc3cc(N[C@H]4CC[C@@H](CO)CC4)c(-c4cc(C(F)F)ccn4)cn3)n2)cn1 [Example 77]
Response given: 4 nM

Challenge: Read the entry CN1CCC(Oc2cnc(-c3cnc(Nc4ccnc(-c5cnn(S(=O)(=O)C6CC6)c5)n4)cc3N[C@H]3CC[C@@H](F)CC3)cn2)CC1 [Example 144] and write its reported IC50.
Response given: 26.3 nM

New cases:
Challenge: Quote IC50 reported for C[C@]1(O)CC[C@@H](Nc2cc(Nc3ccnc(-c4cnn(S(=O)(=O)C5CC5)c4)n3)ncc2-c2cnc(OC(F)F)cn2)CC1 [Example 128] please.
Response given: > 10000 nM

Challenge: Identify measured IC50 associated with C[C@]1(O)CC[C@@H](Nc2cc(Nc3ccnc(-c4cnn(S(=O)(=O)C5CC5)c4)n3)ncc2-c2cnc(N3CCC(F)(F)CC3)cn2)CC1 [Example 75]
Response given: 143 nM

----------
Target: EGFR L858R/C797S (Homo sapiens, UniProt P00533, C797S/L858R)
Sequence (P00533 25-1210 C797S/L858R): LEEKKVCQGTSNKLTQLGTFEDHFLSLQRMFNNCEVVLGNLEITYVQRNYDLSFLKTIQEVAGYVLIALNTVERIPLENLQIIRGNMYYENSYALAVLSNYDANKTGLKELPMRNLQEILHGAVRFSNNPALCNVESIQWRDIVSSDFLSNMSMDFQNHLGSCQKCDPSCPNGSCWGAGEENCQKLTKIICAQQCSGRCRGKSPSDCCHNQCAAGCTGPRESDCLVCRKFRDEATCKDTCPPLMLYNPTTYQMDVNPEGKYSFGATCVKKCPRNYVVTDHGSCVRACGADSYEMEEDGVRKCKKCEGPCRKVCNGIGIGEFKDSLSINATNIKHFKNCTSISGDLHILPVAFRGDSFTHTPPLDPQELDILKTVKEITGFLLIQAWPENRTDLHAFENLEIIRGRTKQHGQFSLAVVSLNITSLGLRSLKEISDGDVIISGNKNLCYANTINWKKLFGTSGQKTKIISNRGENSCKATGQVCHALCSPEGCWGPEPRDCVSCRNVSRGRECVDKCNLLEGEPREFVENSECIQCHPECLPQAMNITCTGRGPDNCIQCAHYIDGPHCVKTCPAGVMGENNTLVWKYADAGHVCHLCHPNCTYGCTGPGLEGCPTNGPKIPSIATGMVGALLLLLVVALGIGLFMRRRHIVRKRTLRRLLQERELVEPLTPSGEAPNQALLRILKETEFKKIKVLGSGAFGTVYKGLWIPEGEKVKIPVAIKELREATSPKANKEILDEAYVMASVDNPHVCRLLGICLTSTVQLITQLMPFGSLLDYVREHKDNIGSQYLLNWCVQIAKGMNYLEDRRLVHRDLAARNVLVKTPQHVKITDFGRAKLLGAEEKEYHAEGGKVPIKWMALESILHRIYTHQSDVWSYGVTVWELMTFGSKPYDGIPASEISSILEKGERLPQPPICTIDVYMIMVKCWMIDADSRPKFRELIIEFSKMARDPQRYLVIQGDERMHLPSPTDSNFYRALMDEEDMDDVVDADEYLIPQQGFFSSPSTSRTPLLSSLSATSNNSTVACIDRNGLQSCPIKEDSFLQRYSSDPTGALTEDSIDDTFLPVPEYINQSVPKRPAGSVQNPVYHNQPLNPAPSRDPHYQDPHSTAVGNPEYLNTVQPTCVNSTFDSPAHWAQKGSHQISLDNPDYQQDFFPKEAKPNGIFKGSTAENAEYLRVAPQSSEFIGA
Test: Biochemical EGFR kinase assay (Lance Ultra TR-FRET), double mutant L858R/C797S
Conditions: Km ATP; read-out: IC50 L858R/C797S (nM) Km ATP
value.type: IC50 (nM)
Express the result in nM but write the number alone.

Use the examples below as a reference point.
Challenge: Please look at this compound and report its IC50: `CN(C)C[C@H]1CC[C@@H](Nc2cc(Nc3ccnc(-c4cnn(S(=O)(=O)C5CC5)c4)n3)ncc2-c2ccc(C(C)(C)O)nn2)CC1`
Response given: 0.2

Challenge: In one line, give reported IC50 of the entry `C[C@]1(O)CC[C@@H](Nc2cc(Nc3ccnc(-c4cnn(S(=O)(=O)C5CC5)c4)n3)ncc2-c2cnc(OC3CCOCC3)cn2)CC1` .
Response given: 1

Challenge: Please supply the value of reported IC50 for the item `CN1CCN(c2ccc(-c3cnc(Nc4ccnc(-c5cnn(S(=O)(=O)C6CC6)c5)n4)cc3N[C@H]3CC[C@@H](C(C)(C)O)CC3)nc2)CC1`
Response given: 0.2

Challenge: Please report the measured IC50 for `COc1ccc(-c2cnc(Nc3ccnc(-c4cnn(S(=O)(=O)C5CC5)c4)n3)cc2N[C@H]2CC[C@@](C)(O)CC2)nn1`
Response given: 1

Challenge: # return recorded IC50 for input `O=S(=O)(C1CC1)n1cc(-c2nccc(Nc3cc(N[C@H]4CC[C@@H](CO)CC4)c(-c4cnc(OC(F)F)cn4)cn3)n2)cn1`
Response given: 12.9

Challenge: Output measured IC50 for this item: `CC(C)(O)c1cc(-c2cnc(Nc3ccnc(-c4cnn(S(=O)(=O)C5CC5)c4)n3)cc2N[C@H]2CC[C@@](C)(O)CC2)ncc1F`
Response given: 0.9

Challenge: Note IC50 for the compound shown: `CN1CCN(c2ccc(-c3cnc(Nc4ccnc(-c5cnn(S(=O)(=O)C6CC6)c5)n4)cc3N[C@H]3CC[C@@](C)(O)CC3)nc2)CC1`
Response given: 0.1

Challenge: Indicate the recorded IC50 value for this compound: `C[C@]1(O)CC[C@@H](Nc2cc(Nc3ccnc(-c4cnn(S(=O)(=O)C5CC5)c4)n3)ncc2-c2ccc(N3CCC(F)(F)CC3)nn2)CC1`
Response given: 1.1

Challenge: Provide one value: measured IC50 of `CC(C)Nc1cc(Nc2ccnc(-c3cnn(S(=O)(=O)C4CC4)c3)n2)ncc1-c1cnc(OCCN(C)C)cn1`
Response given: 4.3

Challenge: Provide IC50 value for the following compound: `O=S(=O)(C1CC1)n1cc(-c2nccc(Nc3cc(N[C@H]4CC[C@@H](CCO)CC4)c(-c4ccc(C(F)F)cn4)cn3)n2)cn1`
Response given: 6

Consider the record given below.
Challenge: Annotate the compound `C[C@]1(O)CC[C@@H](Nc2cc(Nc3ccnc(-c4cnn(S(=O)(=O)C5CC5)c4)n3)ncc2-c2ccc(CN3CCC(F)(F)CC3)cn2)CC1` with its measured IC50.
Response given: 1.7

----------
Reported IC50 values for the following compounds.
Target: EGFR wildtype (Homo sapiens, UniProt P00533)
Experiment: Biochemical EGFR kinase assay (Lance Ultra TR-FRET), wildtype
Details: IC50 WT, 100 μM ATP

Solved entries (count: 2):
Challenge: Return IC50 (reported value) for this compound: CN(C)C[C@H]1CC[C@@H](Nc2cc(Nc3ccnc(-c4cnn(S(=O)(=O)C5CC5)c4)n3)ncc2-c2ccc(CC(F)(F)F)cn2)CC1 [Example 221]
Response given: 767 nM

Challenge: Indicate its recorded IC50; the compound in question is O=S(=O)(C1CC1)n1cc(-c2nccc(Nc3cc(NC4CCC(CO)CC4)c(-c4ccc(C(O)C(F)(F)F)cn4)cn3)n2)cn1 (stereo not drawn) [Example 227]
Response given: 835 nM

From here, focus on the item given below.
Challenge: Supply reported IC50 belonging to this compound: CN(C)C[C@H]1CC[C@@H](Nc2cc(Nc3ccnc(-c4cnn(S(=O)(=O)C5CC5)c4)n3)ncc2-c2ccc(OC(F)(F)F)cn2)CC1 [Example 197]
Response given: 1240 nM

Recorded values, source patent US12258328B2.
